Field: pIC50. Provide a value for each of the compounds that follow.
Molecular target: PI3-kinase p110-delta/p85-alpha (Homo sapiens, UniProt O00329)
Sequence (P27986 whole entry): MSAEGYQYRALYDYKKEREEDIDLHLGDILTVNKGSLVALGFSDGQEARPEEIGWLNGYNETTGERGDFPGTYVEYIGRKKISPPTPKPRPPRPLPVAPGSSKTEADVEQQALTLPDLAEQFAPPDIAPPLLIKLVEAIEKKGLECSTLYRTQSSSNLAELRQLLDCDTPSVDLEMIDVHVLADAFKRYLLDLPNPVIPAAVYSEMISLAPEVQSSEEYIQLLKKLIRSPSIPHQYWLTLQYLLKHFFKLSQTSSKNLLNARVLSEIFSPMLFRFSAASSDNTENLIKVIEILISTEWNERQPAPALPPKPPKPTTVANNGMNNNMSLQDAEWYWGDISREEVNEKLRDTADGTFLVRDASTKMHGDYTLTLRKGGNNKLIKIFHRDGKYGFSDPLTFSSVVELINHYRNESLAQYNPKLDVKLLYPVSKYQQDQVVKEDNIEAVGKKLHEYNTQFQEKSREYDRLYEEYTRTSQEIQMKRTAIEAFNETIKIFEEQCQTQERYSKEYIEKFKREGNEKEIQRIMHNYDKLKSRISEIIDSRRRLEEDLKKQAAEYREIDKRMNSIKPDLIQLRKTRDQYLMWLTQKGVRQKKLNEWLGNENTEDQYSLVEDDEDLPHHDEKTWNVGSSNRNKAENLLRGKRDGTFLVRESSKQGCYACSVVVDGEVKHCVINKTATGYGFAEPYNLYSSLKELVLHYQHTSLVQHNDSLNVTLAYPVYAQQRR
Sequence (O00329 whole entry): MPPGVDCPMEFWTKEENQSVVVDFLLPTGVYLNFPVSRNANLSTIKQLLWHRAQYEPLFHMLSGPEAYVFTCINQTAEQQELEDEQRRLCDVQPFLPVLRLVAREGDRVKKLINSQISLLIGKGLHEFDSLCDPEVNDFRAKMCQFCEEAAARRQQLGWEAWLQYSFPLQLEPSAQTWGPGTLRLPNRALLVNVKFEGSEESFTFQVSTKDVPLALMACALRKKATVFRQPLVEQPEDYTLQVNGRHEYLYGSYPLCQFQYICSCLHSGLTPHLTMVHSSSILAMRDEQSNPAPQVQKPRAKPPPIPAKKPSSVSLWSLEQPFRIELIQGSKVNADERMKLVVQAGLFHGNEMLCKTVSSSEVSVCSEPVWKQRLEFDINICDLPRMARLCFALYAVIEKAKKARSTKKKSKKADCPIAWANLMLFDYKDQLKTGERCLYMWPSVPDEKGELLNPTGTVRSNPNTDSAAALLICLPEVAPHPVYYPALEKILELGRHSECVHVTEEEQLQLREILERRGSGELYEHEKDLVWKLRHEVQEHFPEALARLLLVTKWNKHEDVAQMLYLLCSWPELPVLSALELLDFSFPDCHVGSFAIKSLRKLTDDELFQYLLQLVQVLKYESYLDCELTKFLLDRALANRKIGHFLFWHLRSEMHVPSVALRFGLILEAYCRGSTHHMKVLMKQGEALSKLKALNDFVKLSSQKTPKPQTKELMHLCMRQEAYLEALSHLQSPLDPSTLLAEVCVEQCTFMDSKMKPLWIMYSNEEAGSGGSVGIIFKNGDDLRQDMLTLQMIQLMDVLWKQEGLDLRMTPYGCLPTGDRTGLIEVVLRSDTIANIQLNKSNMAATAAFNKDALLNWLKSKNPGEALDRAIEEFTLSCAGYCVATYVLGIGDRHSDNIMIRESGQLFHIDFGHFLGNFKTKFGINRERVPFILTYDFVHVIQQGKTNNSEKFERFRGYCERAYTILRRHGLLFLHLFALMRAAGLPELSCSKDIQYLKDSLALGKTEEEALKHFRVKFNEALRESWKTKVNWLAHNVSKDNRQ
Test: Inhibition of N-terminal His6-tagged recombinant full-length human p110delta/untagged recombinant full length p85alpha expressed in baculovirus infected Sf21 cells using phosphatidylinositol as substrate in presence of gamma-32P-ATP after 5 mins by thin layer chromatographic method
pIC50: −log10 of the molar value.

Can you look up the measured pIC50 of `Cc1cccnc1-n1c(Cn2nc(-c3cc(O)cc(F)c3)c3c(N)ncnc32)cc2cccc(C)c2c1=O` for me? > 7.00

Look at this compound and give its reported pIC50. `Cc1cccc2cc(Cn3nc(-c4cnn(C)c4)c4c(N)ncnc43)n(-c3ccccc3F)c(=O)c12` > 5.00

Item under review: `Cc1ccccc1-n1c(Cn2nc(C#CC3CC3)c3c(N)ncnc32)cc2cccc(C)c2c1=O` . Reported pIC50? > 6.00

Quick one: pIC50 of `Cc1ccccc1-n1c(Cn2nc(-c3ccc(F)c(O)c3)c3c(N)ncnc32)cc2cccc(C)c2c1=O` ? > 7.00

Recorded pIC50 of CC(Nc1ncnc2[nH]cnc12)c1cc2ccccc2c(=O)n1-c1ccccc1 (centres undefined) , please. > 7.00

Query: pIC50; subject: `Nc1ncnc2c1c(I)nn2Cc1cc2cccc(Cl)c2c(=O)n1C1CC1` > 7.00

Query: pIC50; subject: `Cc1ccccc1-n1c(Cn2nc(-c3ccc4cc[nH]c4c3)c3c(N)ncnc32)cc2cccc(C)c2c1=O` > 7.00

// lookup pIC50 for `Cc1cccc2cc(Cn3nc(-c4ccc(Cl)c(O)c4)c4c(N)ncnc43)n(C(C)C)c(=O)c12` > 7.00

Give its pIC50 value. Item: `Cc1cccc2cc(Cn3nc(-c4cccc(O)c4)c4c(N)ncnc43)n(C)c(=O)c12` > 7.00

====

Target: PI3-kinase p110-alpha/p85-alpha (Homo sapiens, UniProt P42336)
Sequence (P27986 whole entry): as the sequence (P27986 whole entry) above
Sequence (P42336 whole entry): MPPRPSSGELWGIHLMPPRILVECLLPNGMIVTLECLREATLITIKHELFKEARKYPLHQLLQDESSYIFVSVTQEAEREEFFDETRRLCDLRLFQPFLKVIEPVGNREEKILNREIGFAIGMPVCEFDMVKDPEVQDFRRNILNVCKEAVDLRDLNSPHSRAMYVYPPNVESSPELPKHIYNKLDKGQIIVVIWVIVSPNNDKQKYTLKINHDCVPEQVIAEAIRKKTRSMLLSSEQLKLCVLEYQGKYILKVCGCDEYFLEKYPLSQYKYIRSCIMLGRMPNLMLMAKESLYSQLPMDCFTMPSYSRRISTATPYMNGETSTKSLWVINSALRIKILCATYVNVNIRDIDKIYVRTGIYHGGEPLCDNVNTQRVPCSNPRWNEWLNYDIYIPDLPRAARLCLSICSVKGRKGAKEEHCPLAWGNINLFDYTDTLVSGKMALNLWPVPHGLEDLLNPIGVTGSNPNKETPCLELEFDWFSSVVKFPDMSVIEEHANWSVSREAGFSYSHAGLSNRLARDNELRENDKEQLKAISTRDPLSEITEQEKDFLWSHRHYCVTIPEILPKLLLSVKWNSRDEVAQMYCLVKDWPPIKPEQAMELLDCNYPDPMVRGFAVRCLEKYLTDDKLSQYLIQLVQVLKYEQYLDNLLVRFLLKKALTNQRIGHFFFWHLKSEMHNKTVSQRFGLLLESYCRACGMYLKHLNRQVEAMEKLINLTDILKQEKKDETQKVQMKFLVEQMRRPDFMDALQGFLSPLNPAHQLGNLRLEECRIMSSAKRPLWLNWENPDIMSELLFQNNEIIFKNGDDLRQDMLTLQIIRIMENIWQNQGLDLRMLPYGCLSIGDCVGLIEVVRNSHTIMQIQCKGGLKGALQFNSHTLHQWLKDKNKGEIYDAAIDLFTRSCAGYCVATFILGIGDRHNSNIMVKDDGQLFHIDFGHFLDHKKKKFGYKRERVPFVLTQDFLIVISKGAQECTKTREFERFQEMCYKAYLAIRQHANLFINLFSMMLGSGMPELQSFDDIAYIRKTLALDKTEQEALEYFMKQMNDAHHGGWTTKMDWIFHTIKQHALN
Test: Inhibition of N-terminal His6-tagged recombinant full-length human p110alpha/untagged recombinant full length human p85alpha expressed in baculovirus infected Sf21 cells using phosphatidylinositol as substrate in presence of gamma-32P-ATP after 5 mins by thin layer chromatographic method
pIC50: −log10 of the molar value.
Recorded endpoint: pIC50

Please report the recorded pIC50 for `Cc1ccccc1-n1c(Cn2nc(-c3ccc(F)c(O)c3)c3c(N)ncnc32)cc2cccc(C)c2c1=O` . < 5.00

Would you mind telling me what pIC50 value was observed for Cc1ccccc1-n1c(C(C)Nc2ncnc3[nH]cnc23)cc2cccc(C)c2c1=O (configuration not stated) ? < 5.00

What does the record list as pIC50 for `Cc1cccc2cc(Cn3nc(C#C[C@@H](C)O)c4c(N)ncnc43)n(C3CCCCC3)c(=O)c12` ? < 5.00

Could you share which pIC50 value was measured for `Cc1ccccc1-n1c(Cn2nc(CCC(=O)N3CCOCC3)c3c(N)ncnc32)cc2cccc(C)c2c1=O` ? < 5.00

// query pIC50 value for entry `Cc1cccc2cc(Cn3nc(-c4cc(O)cc(F)c4)c4c(N)ncnc43)n(C3CC3)c(=O)c12` > 6.00

Given the compound `CCc1ccccc1-n1c(Cn2nc(-c3cccc(O)c3)c3c(N)ncnc32)cc2cccc(C)c2c1=O` , what is its reported pIC50? < 5.00

// pIC50 lookup, key: `CC(=O)Nc1nc2ccc(-c3nn(Cc4cc5cccc(F)c5c(=O)n4C(C)C)c4ncnc(N)c34)cc2s1` > 4.00

// lookup pIC50 for `Cc1ccccc1-n1c(Cn2nc(-c3cccc(F)c3)c3c(N)ncnc32)cc2cccc(C)c2c1=O` < 5.00

pIC50 lookup needed for `Cc1cccnc1-n1c(Cn2nc(-c3cc(O)cc(F)c3)c3c(N)ncnc32)cc2ccccc2c1=O` , thanks. < 5.00

Fill in: pIC50 of `Cc1cccc2cc(Cn3nc(-c4cc(O)cc(F)c4)c4c(N)ncnc43)n(-c3ccccc3C(C)C)c(=O)c12` is ___ > 6.00

So what's the measured pIC50 for this one? `Cc1cccc2cc(Cn3nc(-c4cccc(O)c4)c4c(N)ncnc43)n(C(C)C)c(=O)c12` < 5.00

So what's the measured pIC50 for this one? `Cc1cccc2cc(Cn3nc(-c4ccc5nc(N)sc5c4)c4c(N)ncnc43)n(-c3ccccc3)c(=O)c12` > 4.00

Could you tell me which pIC50 is on file for `COc1ccccc1-n1c(Cn2nc(I)c3c(N)ncnc32)cc2cccc(C)c2c1=O` ? < 5.00

Give the measured pIC50 of `CCn1c(Cn2nc(-c3ccc4nc(NC(C)=O)sc4c3)c3c(N)ncnc32)cc2cccc(C)c2c1=O` . > 4.00

So what's the measured pIC50 for this one? `Cc1cccc2cc(Cn3nc(-c4cc(O)cc(F)c4)c4c(N)ncnc43)n(C3CCCCC3)c(=O)c12` < 5.00

# get_value(readout='pIC50', item= `CNC(=O)Nc1nc2ccc(-c3nn(Cc4cc5cccc(C)c5c(=O)n4-c4ccccc4C)c4ncnc(N)c34)cc2s1` ) > 4.00

Quick check: pIC50 of `Cc1cccc2cc(Cn3nc(C#C[C@@H](C)O)c4c(N)ncnc43)n(C(C)C)c(=O)c12` ? < 5.00
